Reported IC50 by item:
# TARGET_SYSTEM: Beta-lactamase class C (Enterobacter cloacae, UniProt Q59401)
# Sequence (Q59401 whole entry): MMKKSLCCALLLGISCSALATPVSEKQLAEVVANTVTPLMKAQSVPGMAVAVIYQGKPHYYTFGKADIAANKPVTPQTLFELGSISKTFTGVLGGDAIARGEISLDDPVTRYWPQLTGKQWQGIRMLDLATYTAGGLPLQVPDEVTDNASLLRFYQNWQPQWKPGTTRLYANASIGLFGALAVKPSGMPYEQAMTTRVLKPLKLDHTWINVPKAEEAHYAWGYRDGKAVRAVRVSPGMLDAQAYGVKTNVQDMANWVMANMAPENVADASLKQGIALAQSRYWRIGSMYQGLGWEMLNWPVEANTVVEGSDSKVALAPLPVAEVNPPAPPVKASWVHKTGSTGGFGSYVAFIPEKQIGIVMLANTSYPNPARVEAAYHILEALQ
# ASSAY_METHOD_TEXT: Inhibition of class C beta-lactamase derived from Enterobacter cloacae P99
REPORTED_METRIC: IC50 (nM)

| COMPOUND | REPORTED_METRIC | MEASURED |
| --- | --- | --- |
| COC(=O)/C(Cl)=C/C1=C(C(=O)O)N2C(=O)/C(=C/c3ccccn3)C2S(=O)(=O)C1 (configuration not stated) | IC50 | 900 |
| NC(=O)OCC1=C(C(=O)O)N2C(=O)/C(=C/c3ccccn3)C2S(=O)(=O)C1 (configuration not stated) | IC50 | 2300 |
| O=C(O)C1=C(/C=C/[N+](=O)[O-])CS(=O)(=O)C2/C(=C\c3ccccn3)C(=O)N12 (configuration not stated) | IC50 | 20 |
| O=C(O)/C=C/C1=C(C(=O)O)N2C(=O)/C(=C/c3ccccn3)C2S(=O)(=O)C1 (configuration not stated) | IC50 | 310 |
| CC(C)(C)OC(=O)/C=C/C1=C(C(=O)O)N2C(=O)/C(=C/c3ccccn3)C2S(=O)(=O)C1 (configuration not stated) | IC50 | 1480 |
| O=C(Cc1ccc(O)c(O)c1)OCC1=C(C(=O)O)N2C(=O)/C(=C/c3ccccn3)C2S(=O)(=O)C1 (configuration not stated) | IC50 | 3600 |
| C=C1C(/C=C/C(=O)O)=C(C(=O)O)N2C(=O)/C(=C/c3ccccn3)C2S1(=O)=O (configuration not stated) | IC50 | 6600 |

###

# TARGET_SYSTEM: Beta-lactamase (Staphylococcus aureus)
# Sequence (P00807 whole entry): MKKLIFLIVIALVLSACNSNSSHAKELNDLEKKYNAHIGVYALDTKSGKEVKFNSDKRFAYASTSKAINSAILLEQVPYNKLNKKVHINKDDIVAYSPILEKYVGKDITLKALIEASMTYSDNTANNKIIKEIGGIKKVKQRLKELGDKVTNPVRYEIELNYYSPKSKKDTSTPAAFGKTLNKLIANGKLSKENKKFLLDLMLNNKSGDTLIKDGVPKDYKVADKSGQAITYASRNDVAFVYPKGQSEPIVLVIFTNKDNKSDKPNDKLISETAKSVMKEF
# ASSAY_METHOD_TEXT: Inhibition of class A beta-lactamase derived from Staphylococcus aureus strain PC1

| MOLECULE | IC50 (µM) |
| --- | --- |
| N#CC1=C(C(=O)O)N2C(=O)/C(=C/c3ccccn3)C2S(=O)(=O)C1 (stereo unspecified) | 280 |
| C=CC(=O)OCC1=C(C(=O)O)N2C(=O)/C(=C/c3ccccn3)C2S(=O)(=O)C1 (stereo unspecified) | 110 |
| COC(=O)/C=C/C1=C(C(=O)O)N2C(=O)/C(=C/c3ccccn3)C2S(=O)(=O)C1 (stereo unspecified) | 0.3 |
| NC(=O)/C=C/C1=C(C(=O)O)N2C(=O)/C(=C/c3ccccn3)C2S(=O)(=O)C1 (stereo unspecified) | 0.1 |
| N#CCC1=C(C(=O)O)N2C(=O)/C(=C/c3ccccn3)C2S(=O)(=O)C1 (stereo unspecified) | 8.9 |
| NC(=O)OCC1=C(C(=O)O)N2C(=O)/C(=C/c3ccccn3)C2S(=O)(=O)C1 (stereo unspecified) | 7.9 |
| C=C/C=C/C1=C(C(=O)O)N2C(=O)/C(=C/c3ccccn3)C2S(=O)(=O)C1 (stereo unspecified) | 75 |
| CCOC(=O)CNC(=O)OCC1=C(C(=O)O)N2C(=O)/C(=C/c3ccccn3)C2S(=O)(=O)C1 (stereo unspecified) | 33.4 |
| O=C(O)/C=C/C1=C(C(=O)O)N2C(=O)/C(=C/c3ccccn3)C2S(=O)(=O)C1 (stereo unspecified) | 31 |
| O=C(Cc1ccc(O)c(O)c1)OCC1=C(C(=O)O)N2C(=O)/C(=C/c3ccccn3)C2S(=O)(=O)C1 (stereo unspecified) | 67 |
| O=C(O)C1=C(/C=C/[N+](=O)[O-])CS(=O)(=O)C2/C(=C\c3ccccn3)C(=O)N12 (stereo unspecified) | 0.2 |
| CC(C)(C)OC(=O)/C=C/C1=C(C(=O)O)N2C(=O)/C(=C/c3ccccn3)C2S(=O)(=O)C1 (stereo unspecified) | 240 |
| O=C(COc1ccccc1)OCC1=C(C(=O)O)N2C(=O)/C(=C/c3ccccn3)C2S(=O)(=O)C1 (stereo unspecified) | 100 |
| NC(=O)/C=C/C1=C(C(=O)O)N2C(=O)/C(=C/c3cccs3)C2S(=O)(=O)C1 (stereo unspecified) | 154 |
| CCC(=O)OCC1=C(C(=O)O)N2C(=O)/C(=C/c3ccccn3)C2S(=O)(=O)C1 (stereo unspecified) | 15.4 |
| O=C(O)C1=C(/C=C/c2cccc[n+]2[O-])CS(=O)(=O)[C@@H]2/C(=C\c3ccccn3)C(=O)N12 | 8.6 |
| COCC1=C(C(=O)O)N2C(=O)/C(=C/c3ccccn3)C2S(=O)(=O)C1 (stereo unspecified) | 28 |
| O=C(O)C1=C(/C=C/c2ccccn2)CS(=O)(=O)[C@@H]2/C(=C\c3ccccn3)C(=O)N12 | 4.3 |
| N#C/C=C/C1=C(C(=O)O)N2C(=O)/C(=C/c3ccccn3)C2S(=O)(=O)C1 (stereo unspecified) | 0.72 |
| C=C1C(/C=C/C(=O)OC)=C(C(=O)O)N2C(=O)/C(=C/c3ccccn3)C2S1(=O)=O (stereo unspecified) | 6 |
| COC(=O)/C(Cl)=C/C1=C(C(=O)O)N2C(=O)/C(=C/c3ccccn3)C2S(=O)(=O)C1 (stereo unspecified) | 1.4 |

###

# TARGET_SYSTEM: Beta-lactamase TEM (Enterobacter cloacae, UniProt Q6W9J1)
# Sequence (Q6W9J1 whole entry): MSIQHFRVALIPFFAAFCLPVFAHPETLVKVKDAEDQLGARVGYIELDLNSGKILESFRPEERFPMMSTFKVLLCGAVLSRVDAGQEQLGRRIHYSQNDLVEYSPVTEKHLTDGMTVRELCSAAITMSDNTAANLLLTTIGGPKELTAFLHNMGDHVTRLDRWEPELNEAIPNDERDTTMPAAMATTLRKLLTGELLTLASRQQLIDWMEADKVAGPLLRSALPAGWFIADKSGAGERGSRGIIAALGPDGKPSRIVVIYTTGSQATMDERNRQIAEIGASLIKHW
# ASSAY_METHOD_TEXT: Inhibition of class A TEM-1 beta-lactamase derived from Enterobacter cloacae
// returns false (0) unless IC50 is strictly below 3 µM, in which case true (1)

| COMPOUND | ASSIGNED_LABEL |
| --- | --- |
| C=C/C=C/C1=C(C(=O)O)N2C(=O)/C(=C/c3ccccn3)C2S(=O)(=O)C1 (stereo not given) | false (0) |
| COCC1=C(C(=O)O)N2C(=O)/C(=C/c3ccccn3)C2S(=O)(=O)C1 (stereo not given) | true (1) |
| COC(=O)/C(Cl)=C/C1=C(C(=O)O)N2C(=O)/C(=C/c3ccccn3)C2S(=O)(=O)C1 (stereo not given) | true (1) |
| N#CC1=C(C(=O)O)N2C(=O)/C(=C/c3ccccn3)C2S(=O)(=O)C1 (stereo not given) | true (1) |
| COC(=O)/C=C/C1=C(C(=O)O)N2C(=O)/C(=C/c3ccccn3)C2S(=O)(=O)C1 (stereo not given) | true (1) |
| O=C(O)/C=C/C1=C(C(=O)O)N2C(=O)/C(=C/c3ccccn3)C2S(=O)(=O)C1 (stereo not given) | true (1) |
| NC(=O)/C=C/C1=C(C(=O)O)N2C(=O)/C(=C/c3cccs3)C2S(=O)(=O)C1 (stereo not given) | true (1) |
| NC(=O)/C=C/C1=C(C(=O)O)N2C(=O)/C(=C/c3ccccn3)C2S(=O)(=O)C1 (stereo not given) | true (1) |
| N#C/C=C/C1=C(C(=O)O)N2C(=O)/C(=C/c3ccccn3)C2S(=O)(=O)C1 (stereo not given) | true (1) |
| C=C1C(/C=C/C(=O)OC)=C(C(=O)O)N2C(=O)/C(=C/c3ccccn3)C2S1(=O)=O (stereo not given) | true (1) |
| NC(=O)OCC1=C(C(=O)O)N2C(=O)/C(=C/c3ccccn3)C2S(=O)(=O)C1 (stereo not given) | false (0) |
| O=C(Cc1ccc(O)c(O)c1)OCC1=C(C(=O)O)N2C(=O)/C(=C/c3ccccn3)C2S(=O)(=O)C1 (stereo not given) | false (0) |
| CCOC(=O)CNC(=O)OCC1=C(C(=O)O)N2C(=O)/C(=C/c3ccccn3)C2S(=O)(=O)C1 (stereo not given) | false (0) |
| N#CCC1=C(C(=O)O)N2C(=O)/C(=C/c3ccccn3)C2S(=O)(=O)C1 (stereo not given) | false (0) |
| CCC(=O)OCC1=C(C(=O)O)N2C(=O)/C(=C/c3ccccn3)C2S(=O)(=O)C1 (stereo not given) | false (0) |
| O=C(O)C1=C(/C=C/c2cccc[n+]2[O-])CS(=O)(=O)[C@@H]2/C(=C\c3ccccn3)C(=O)N12 | true (1) |
| O=C(O)C1=C(/C=C/[N+](=O)[O-])CS(=O)(=O)C2/C(=C\c3ccccn3)C(=O)N12 (stereo not given) | true (1) |
| O=C(COc1ccccc1)OCC1=C(C(=O)O)N2C(=O)/C(=C/c3ccccn3)C2S(=O)(=O)C1 (stereo not given) | true (1) |
| O=C(O)C1=C(/C=C/c2ccccn2)CS(=O)(=O)[C@@H]2/C(=C\c3ccccn3)C(=O)N12 | true (1) |
| C=C1C(/C=C/C(=O)O)=C(C(=O)O)N2C(=O)/C(=C/c3ccccn3)C2S1(=O)=O (stereo not given) | true (1) |

###

# TARGET_SYSTEM: Beta-lactamase class C (Enterobacter cloacae)
# ASSAY_METHOD_TEXT: Inhibition of class C beta-lactamase derived from Enterobacter cloacae P99
Strictly below 100 nM in IC50: true (1). Otherwise: false (0).

| MOLECULE | ASSIGNED_LABEL |
| --- | --- |
| C=C/C=C/C1=C(C(=O)O)N2C(=O)/C(=C/c3ccccn3)C2S(=O)(=O)C1 (stereo not given) | false (0) |
| CCOC(=O)CNC(=O)OCC1=C(C(=O)O)N2C(=O)/C(=C/c3ccccn3)C2S(=O)(=O)C1 (stereo not given) | false (0) |
| C=C1C(/C=C/C(=O)OC)=C(C(=O)O)N2C(=O)/C(=C/c3ccccn3)C2S1(=O)=O (stereo not given) | true (1) |
| N#CC1=C(C(=O)O)N2C(=O)/C(=C/c3ccccn3)C2S(=O)(=O)C1 (stereo not given) | true (1) |

Source of measurements: ChEMBL document CHEMBL1133346
